The reported numbers originate from BindingDB's records for doi:10.1021/jm500892k.

Please go through the items and note down their IC50.
# test_details: Inhibition of Influenza A virus A/chicken/shandong/S2/02(H9N2) Neuraminidase

CCC(CC)O[C@@H]1C=C(C(=O)O)C[C@H](NCc2ccccc2Cl)[C@H]1NC(C)=O    > 0.43 µM

Give measured IC50 for every item shown.
1. CCC(CC)O[C@@H]1C=C(C(=O)O)C[C@H](NCCCc2ccccc2)[C@H]1NC(C)=O
2. CCC(CC)O[C@@H]1C=C(C(=O)O)C[C@H](N(CCCc2ccccc2)C(=N)N)[C@H]1NC(C)=O

result:
1. > 5 µM
2. > 5 µM

###

Please go through the items and note down their IC50.
# test_details: Inhibition of Influenza A virus A/duck/china/QJ/01(H5N1) Neuraminidase

Sample records with IC50:
CCC(CC)O[C@@H]1C=C(C(=O)O)C[C@H](NCCCN)[C@H]1NC(C)=O    > 200 nM
CCC(CC)O[C@@H]1C=C(C(=O)O)C[C@H](N(CCCc2ccccc2)C(=N)N)[C@H]1NC(C)=O    > 3000 nM
CCC(CC)O[C@@H]1C=C(C(=O)NO)C[C@H](NC(=N)N)[C@H]1NC(C)=O    > 200 nM
CCCCCN(C(=N)N)[C@H]1CC(C(=O)O)=C[C@@H](OC(CC)CC)[C@@H]1NC(C)=O    > 3000 nM
C=CCOc1ccccc1CN[C@H]1CC(C(=O)O)=C[C@@H](OC(CC)CC)[C@@H]1NC(C)=O    > 200 nM

Give measured IC50 for every item shown.
1. CCC(CC)O[C@@H]1C=C(C(=O)O)C[C@H](N(CCC(C)C)C(=N)N)[C@H]1NC(C)=O
2. CCCCN(C(=N)N)[C@H]1CC(C(=O)O)=C[C@@H](OC(CC)CC)[C@@H]1NC(C)=O
3. CCC(CC)O[C@@H]1C=C(C(=O)O)C[C@H](NCc2ccccc2OC)[C@H]1NC(C)=O
4. CCC(CC)CN(C(=N)N)[C@H]1CC(C(=O)O)=C[C@@H](OC(CC)CC)[C@@H]1NC(C)=O
5. CCCN(C(=N)N)[C@H]1CC(C(=O)O)=C[C@@H](OC(CC)CC)[C@@H]1NC(C)=O

result:
1. > 3000 nM
2. > 3000 nM
3. > 2000 nM
4. > 3000 nM
5. 3900 nM

Give measured IC50 for every item shown.
1. CCC(CC)O[C@@H]1C=C(C(=O)O)C[C@H](NC(=N)N)[C@H]1NC(C)=O [Guanidino-Oseltamivir Carboxylicacid]
2. CCC(CC)O[C@@H]1C=C(C(=O)O)C[C@H](NCc2ccccc2OCc2ccco2)[C@H]1NC(C)=O
3. CCC(CC)O[C@@H]1C=C(C(=O)O)C[C@H](NCc2cccs2)[C@H]1NC(C)=O
4. CCC(CC)O[C@@H]1C=C(C(=O)O)C[C@H](N(Cc2ccccc2)C(=N)N)[C@H]1NC(C)=O

result:
1. 2.6 nM
2. > 200 nM
3. 54 nM
4. > 3000 nM
